- Tested on: Thermotoga maritima
- EXPERIMENT NOTES: Induction of Thermotoga maritima His-tagged HK853 expressed in Escherichia coli BL21(DE3)pLysS Rosetta aggregation at 100 uM after 30 mins by PAGE analysis
Activity calls are given as the source filed them. The calls are words filed in the database; no cut-off is given here.

{"SMILES STRING": "Clc1ccccc1CSc1ncnc2[nH]cnc12", "MEASURED TARGET": "Thermotoga maritima", "Activity": "Active"}
{"SMILES STRING": "Clc1c(CSc2ncnc3[nH]cnc23)ccc2c1OCO2", "MEASURED TARGET": "Thermotoga maritima", "Activity": "Active"}
{"SMILES STRING": "C=CCSc1ncnc2[nH]cnc12", "MEASURED TARGET": "Thermotoga maritima", "Activity": "Active"}
{"SMILES STRING": "NS(=O)(=O)c1ccc(CCNc2ncnc3[nH]cnc23)cc1", "MEASURED TARGET": "Thermotoga maritima", "Activity": "Active"}
{"SMILES STRING": "c1ccc(N2CCN(c3ncnc4[nH]cnc34)CC2)nc1", "MEASURED TARGET": "Thermotoga maritima", "Activity": "Active"}
{"SMILES STRING": "Cc1ccccc1OCn1cnc2c(N)ncnc21", "MEASURED TARGET": "Thermotoga maritima", "Activity": "Active"}
{"SMILES STRING": "CC1CCN(c2ncnc3[nH]cnc23)CC1", "MEASURED TARGET": "Thermotoga maritima", "Activity": "Active"}
{"SMILES STRING": "Brc1ccc(CSc2[nH]cnc3ncnc2-3)cc1", "MEASURED TARGET": "Thermotoga maritima", "Activity": "Active"}

###

- MEASURED TARGET: Heat shock protein HSP 90-alpha (Homo sapiens)
pIC50: −log10 of the molar value.
EXPERIMENTAL READOUT: pIC50

{"SMILES STRING": "Cn1cnc2c(N)nc(Cl)nc21", "ASSAY VALUE": "< 2.90"}
